Entries and their inhibition values follow.
procedure.text: endothelial E-selectin expression blockers – imaging, HUVEC, immunofluorescence, MLSMR starter and 10KST1 sets, primary screen (AID 487);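 also: signal is fraction of cell area covered by stained E-selectin grains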
run.parameters: HUVEC TNFalpha-induced E-selectin immunofluorescence imaging, at 2 µM; stronger effect = higher value
Answer with a number only, understood to be in %.

Some compounds with recorded inhibition:
[[record]]
compound = "C/C(Cl)=C/Cn1c(SCc2ccc(Cl)cc2)nc2c1c(=O)[nH]c(=O)n2C"
value_reported = 15

[[record]]
compound = "O=C(NCCC1=CCCCC1)c1cc2c(s1)CS(=O)(=O)C2"
value_reported = 31

[[record]]
compound = "Cc1cc(=O)oc2c1ccc1oc(/C(=N/O)c3ccccc3)c(C)c12"
value_reported = 1.5

[[record]]
compound = "COc1ccc(S(=O)(=O)N2Cc3ccccc3CC2C(=O)Nc2ccc(O)cc2)cc1OC (configuration not stated)"
value_reported = -42.8

[[record]]
compound = "COc1ccccc1OCCCCNCCO"
value_reported = -80.3


Bench note: what inhibition did Cc1nnc(SCC(=O)N2c3ccccc3CC2C)s1 (configuration not stated) show? -46.9

For CC(=O)Nc1ccc(S(=O)(=O)NCC2CCC(C(=O)NCCCN3CCCC3=O)CC2)cc1 (configuration not stated) then? -15.4

For O=C(Nc1ccc2snnc2c1)N1CCSCC1 then? 12.4

For CCN=C1SC(CC(=O)Nc2ccccc2OCC)C(=O)N1CC (configuration not stated) then? 0.9

For CCOC(=O)C1(C)NC(c2ccc(OC)c(OC)c2)C2C(=O)N(CC)C(=O)C21 (configuration not stated) then? -211
